Molecular target: human MCHR1 (Homo sapiens, UniProt Q99705)
Construct: expressed in transfected cells; host or cells: CHO dhfr- cells, clone #4
Sequence (Q99705 whole entry): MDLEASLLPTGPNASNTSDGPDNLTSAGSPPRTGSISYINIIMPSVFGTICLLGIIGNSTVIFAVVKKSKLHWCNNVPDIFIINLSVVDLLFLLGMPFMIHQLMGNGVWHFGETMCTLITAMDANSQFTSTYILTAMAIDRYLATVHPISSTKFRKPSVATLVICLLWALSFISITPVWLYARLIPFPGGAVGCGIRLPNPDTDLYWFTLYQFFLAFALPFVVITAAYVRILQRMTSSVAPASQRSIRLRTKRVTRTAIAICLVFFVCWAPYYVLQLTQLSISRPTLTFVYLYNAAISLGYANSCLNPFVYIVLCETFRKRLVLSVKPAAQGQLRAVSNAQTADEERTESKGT
Assay: MCH receptor 1 antagonistic activity, Ca2+ mobilization assay
Format: cell-based
Conditions: CHO, test compound 0.1 μM; human MCHR1-expressing CHO cells (clone #4); ligand MCH(4-19) 2 nM; read-out: Inhibitory rate % (0.1 μM)
Description: Measurement of MCH Receptor 1 Antagonistic Activity of Test Compound Using Ca^2+ Mobilization Assay Using an expression vector plasmid introduced with human MCHR1 gene for expression in animal cells, human MCHR1 gene was introduced into CHO cells (CHO dhfr^−) by Lipofectamine LTX (Invitrogen). […] The plate was set on a plate reader. […] The inhibition rates (%) of test compounds (0.1 μM) as antagonist activity measured using human MCHR1-expressing CHO cells (clone #4) are shown in the following Table 3.
READOUT_LABEL: inhibition at 0.1 µM (%)

# MOLECULE, READOUT_LABEL, VALUE_REPORTED
data = [
    ("Cn1c(C2CC2)nc2ccc(-n3ccc(COc4ccc(F)cc4)cc3=O)cc21", "inhibition at 0.1 µM", 72),
    ("Cc1c(C2CC2)nc2ccc(-n3ccc(OCc4csc(Br)c4)cc3=O)cn12", "inhibition at 0.1 µM", 97),
    ("Cc1nc2ccc(-n3ccc(OCc4csc(C(F)(F)F)c4)cc3=O)cc2n1C", "inhibition at 0.1 µM", 90),
    ("Cn1c(C2CC2)nc2ccc(-n3ccc(OCc4nc(CF)cs4)cc3=O)cc21", "inhibition at 0.1 µM", 73),
    ("Cn1c([C@H]2C[C@H]2C#N)nc2ccc(-n3ccc(OCc4ccc(Cl)cc4)cc3=O)cc21 (racemic)", "inhibition at 0.1 µM", 94),
    ("Cc1c(C2CC2)nc2ccc(-n3ccc(OCc4ccc(C(F)(F)F)o4)cc3=O)cn12", "inhibition at 0.1 µM", 99),
    ("Cc1c(C2CC2)nc2ccc(-n3ccc(OCc4cccc(F)c4)cc3=O)cn12", "inhibition at 0.1 µM", 99),
    ("Cc1nc2ccc(-n3ccc(OCc4ccc(F)cc4)cc3=O)cc2n1C", "inhibition at 0.1 µM", 95),
    ("Cn1c(C2CC2)nc2ccc(-n3ccc(OCc4nc(C5CC5)cs4)cc3=O)cc21", "inhibition at 0.1 µM", 77),
]
